Sourced from patent US8623860B2

Target: human ACC2 (Homo sapiens (Human), UniProt O00763)
Sequence (O00763 129-2458): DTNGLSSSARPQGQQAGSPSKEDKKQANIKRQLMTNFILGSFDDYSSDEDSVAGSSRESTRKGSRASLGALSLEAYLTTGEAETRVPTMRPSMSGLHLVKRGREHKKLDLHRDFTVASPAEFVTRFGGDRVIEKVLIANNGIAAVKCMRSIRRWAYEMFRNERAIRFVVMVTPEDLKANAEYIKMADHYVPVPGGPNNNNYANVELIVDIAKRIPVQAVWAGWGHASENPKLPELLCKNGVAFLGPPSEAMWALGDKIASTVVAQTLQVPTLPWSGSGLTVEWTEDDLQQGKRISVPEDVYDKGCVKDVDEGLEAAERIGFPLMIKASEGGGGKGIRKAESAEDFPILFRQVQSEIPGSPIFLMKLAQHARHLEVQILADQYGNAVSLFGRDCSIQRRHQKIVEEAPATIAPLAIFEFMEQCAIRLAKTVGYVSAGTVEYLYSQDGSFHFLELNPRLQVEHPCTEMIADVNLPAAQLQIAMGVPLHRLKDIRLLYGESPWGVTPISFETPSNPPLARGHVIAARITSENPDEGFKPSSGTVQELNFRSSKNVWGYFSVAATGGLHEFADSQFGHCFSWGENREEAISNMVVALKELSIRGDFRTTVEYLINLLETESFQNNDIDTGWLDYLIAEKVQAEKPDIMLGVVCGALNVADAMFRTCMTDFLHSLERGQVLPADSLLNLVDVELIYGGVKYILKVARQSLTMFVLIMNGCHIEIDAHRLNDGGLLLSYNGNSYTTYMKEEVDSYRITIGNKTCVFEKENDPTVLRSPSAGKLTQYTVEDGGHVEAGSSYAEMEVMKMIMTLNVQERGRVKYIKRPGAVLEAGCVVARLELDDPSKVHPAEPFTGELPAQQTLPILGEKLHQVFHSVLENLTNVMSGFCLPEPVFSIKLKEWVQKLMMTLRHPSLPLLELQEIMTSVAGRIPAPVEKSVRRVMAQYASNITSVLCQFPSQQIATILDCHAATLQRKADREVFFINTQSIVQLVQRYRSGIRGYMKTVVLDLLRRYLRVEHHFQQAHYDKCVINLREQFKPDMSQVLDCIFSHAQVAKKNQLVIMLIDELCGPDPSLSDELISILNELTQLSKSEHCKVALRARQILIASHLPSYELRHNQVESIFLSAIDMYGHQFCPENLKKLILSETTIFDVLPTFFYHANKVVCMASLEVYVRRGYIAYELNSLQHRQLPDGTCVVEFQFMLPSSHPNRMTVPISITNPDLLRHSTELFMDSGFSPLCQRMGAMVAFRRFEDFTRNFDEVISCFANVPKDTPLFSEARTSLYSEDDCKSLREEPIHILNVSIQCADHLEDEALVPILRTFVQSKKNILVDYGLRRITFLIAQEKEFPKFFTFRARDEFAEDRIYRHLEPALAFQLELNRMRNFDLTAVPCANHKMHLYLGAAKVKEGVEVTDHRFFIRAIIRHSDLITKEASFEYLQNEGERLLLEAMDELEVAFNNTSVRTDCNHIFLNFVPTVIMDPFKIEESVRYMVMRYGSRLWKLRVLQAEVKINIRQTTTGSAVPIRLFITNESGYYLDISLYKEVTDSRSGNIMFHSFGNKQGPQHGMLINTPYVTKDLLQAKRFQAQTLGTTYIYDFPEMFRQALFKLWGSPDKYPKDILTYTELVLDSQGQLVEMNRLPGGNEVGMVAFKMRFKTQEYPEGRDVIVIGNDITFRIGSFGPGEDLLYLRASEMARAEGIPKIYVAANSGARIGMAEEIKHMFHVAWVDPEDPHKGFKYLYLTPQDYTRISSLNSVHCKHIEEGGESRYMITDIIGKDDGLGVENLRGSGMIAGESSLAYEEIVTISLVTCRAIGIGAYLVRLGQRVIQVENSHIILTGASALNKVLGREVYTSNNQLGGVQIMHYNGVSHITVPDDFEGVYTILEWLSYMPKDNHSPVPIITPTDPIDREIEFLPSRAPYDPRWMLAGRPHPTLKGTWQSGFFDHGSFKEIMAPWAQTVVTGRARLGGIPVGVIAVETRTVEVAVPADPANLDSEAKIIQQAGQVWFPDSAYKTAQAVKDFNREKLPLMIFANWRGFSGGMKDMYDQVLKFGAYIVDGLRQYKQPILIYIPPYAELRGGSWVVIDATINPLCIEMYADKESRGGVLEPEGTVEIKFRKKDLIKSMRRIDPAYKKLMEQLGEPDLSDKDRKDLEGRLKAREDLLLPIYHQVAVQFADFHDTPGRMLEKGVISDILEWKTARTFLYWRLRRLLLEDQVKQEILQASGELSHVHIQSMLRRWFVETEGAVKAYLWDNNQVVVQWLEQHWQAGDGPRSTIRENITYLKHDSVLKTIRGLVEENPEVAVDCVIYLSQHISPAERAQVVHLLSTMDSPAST
Experiment: ACC2 assay, spectrophotometric 384 well assay (NADH-linked, coupled lactate dehydrogenase/pyruvate kinase reaction)
Type: biochemical
Details: hACC2 construct lacking the 128 N-terminal amino acids; 25° C., 340 nm, 15 minutes
pIC50: −log10 of the molar value.
So basically: pIC50 at 6 or higher? That is Y. Lower than 6? That is N.

> print(dat)
                                    molecule  label.class
 1  CC(=O)N[C@@H](C)c1ccc(C2CN(c3cccc(C(F)(F)F)n3)C2)cc1 [Example 2.10]            Y
 2  CC(=O)NC(C)Cc1ccc(C2CN(c3ncc(Br)cn3)C2)cc1 (centres unmarked) [Example 2.01]            N
 3  CC(=O)Nc1nc(C)c(C(=O)N[C@@H](C)c2ccc(C3CN(c4ccc5c(c4)OCCO5)C3)cc2)s1 [Example 3.72]            N
 4  C[C@H](NC(=O)CF)c1ccc(C2CN(c3ccc(OCC4CC4)cc3)C2)cc1 [Example 3.89]            Y
 5  CC(=O)Nc1nc(C)c(C(=O)N[C@@H](C)c2ccc(C3CN(c4ccc(OCC5CC5)cc4)C3)cc2)s1 [Example 3.04]            Y
 6  CC(Cc1ccc(C2CN(c3ccc(OCC4CC4)cc3)C2)cc1)NC(=O)c1ccon1 (centres unmarked) [Example 3.77]            N
 7  CCCOc1ccc(N2CC(c3ccc(CC(C)NC(C)=O)cc3)C2)cc1 (centres unmarked) [Example 1.01]            Y
 8  CC(=O)N[C@@H](C)c1ccc(C2CN(c3ccc(OC4CC4)cc3)C2)cc1 [Example 1.25]            Y
 9  C[C@H](NC(=O)c1ccon1)c1ccc(C2CN(c3ccc4c(c3)OCCO4)C2)cc1 [Example 3.73]            N
10  CCC(C)Nc1ncc(N2CC(c3ccc(C(C)NC(C)=O)cc3)C2)cn1 (centres unmarked) [Example 1.22]            N
11  CC(Cc1ccc(C2CN(c3ccc(OCC4CC4)cc3)C2)cc1)NC(=O)C(F)F (centres unmarked) [Example 3.12]            N
12  CC(=O)N[C@@H](C)c1ccc(C2CN(c3ncc(OCC4CC4(F)F)cc3F)C2)cc1 (some centres unmarked) [Example 1.35]            Y
13  CC(=O)NC(C)c1ccc(C2CN(c3ccc(OC4CCCC4)cc3)C2)cc1 (centres unmarked) [Example 1.21]            Y
14  C[C@H](NC(=O)c1cncs1)c1ccc(C2CN(c3ccc(OCC4CC4)cc3)C2)cc1 [Example 3.86]            Y
15  Cc1oncc1C(=O)N[C@@H](C)c1ccc(C2CN(c3ccc(OCC4CC4)cc3)C2)cc1 [Example 3.01]            Y
